In this section we review reported inhibition zone (IZ) values for a set of compounds.
- System: Staphylococcus epidermidis
- EXPERIMENT NOTES: Antibacterial activity against Staphylococcus epidermidis MTCC 3615 assessed as zone of inhibition at 1 mg/disc after 24 hrs by disc diffusion method
- Type: functional
READOUT KIND: inhibition zone (IZ) (mm)

compound=CN1C[C@](C#N)(C(=O)c2c[nH]c3ccccc23)[C@@H](c2cn(-c3ccccc3)nc2-c2ccccc2)[C@@]12C(=O)Nc1ccc([N+](=O)[O-])cc12 measured_value=15
compound="N#C[C@]1(C(=O)c2c[nH]c3ccccc23)C2CCCN2[C@]2(C(=O)Nc3ccc(Cl)cc32)[C@@H]1c1cn(-c2ccccc2)nc1-c1ccccc1 (some centres not stated)" measured_value=8
compound="N#C[C@]1(C(=O)c2c[nH]c3ccccc23)C2CSCN2[C@]2(C(=O)Nc3ccccc32)[C@@H]1c1cn(-c2ccccc2)nc1-c1ccccc1 (some centres not stated)" measured_value=13
compound=CCCCN1C(=O)[C@]2(c3ccccc31)[C@H](c1cn(-c3ccccc3)nc1-c1ccccc1)[C@@](C#N)(C(=O)c1c[nH]c3ccccc13)CN2C measured_value=9
compound="C=CCN1C(=O)[C@]2(c3ccccc31)[C@H](c1cn(-c3ccccc3)nc1-c1ccccc1)[C@@](C#N)(C(=O)c1c[nH]c3ccccc13)C1CSCN12 (some centres not stated)" measured_value=11
compound="CCCCN1C(=O)[C@]2(c3ccccc31)[C@H](c1cn(-c3ccccc3)nc1-c1ccccc1)[C@@](C#N)(C(=O)c1c[nH]c3ccccc13)C1CSCN12 (some centres not stated)" measured_value=10
compound=C=CCN1C(=O)[C@]2(c3ccccc31)[C@H](c1cn(-c3ccccc3)nc1-c1ccccc1)[C@@](C#N)(C(=O)c1c[nH]c3ccccc13)CN2C measured_value=10
compound="CN1C(=O)[C@]2(c3ccccc31)[C@H](c1cn(-c3ccccc3)nc1-c1ccccc1)[C@@](C#N)(C(=O)c1c[nH]c3ccccc13)C1CCCN12 (some centres not stated)" measured_value=12
compound="N#C[C@]1(C(=O)c2c[nH]c3ccccc23)C2CCCN2[C@]2(C(=O)Nc3ccccc32)[C@@H]1c1cn(-c2ccccc2)nc1-c1ccccc1 (some centres not stated)" measured_value=13
compound="CCCCN1C(=O)[C@]2(c3ccccc31)[C@H](c1cn(-c3ccccc3)nc1-c1ccccc1)[C@@](C#N)(C(=O)c1c[nH]c3ccccc13)C1CCCN12 (some centres not stated)" measured_value=10
compound="N#C[C@]1(C(=O)c2c[nH]c3ccccc23)C2CCCN2[C@]2(C(=O)Nc3ccc([N+](=O)[O-])cc32)[C@@H]1c1cn(-c2ccccc2)nc1-c1ccccc1 (some centres not stated)" measured_value=12
compound="N#C[C@]1(C(=O)c2c[nH]c3ccccc23)C2CCCN2[C@]2(C(=O)N(Cc3ccccc3)c3ccccc32)[C@@H]1c1cn(-c2ccccc2)nc1-c1ccccc1 (some centres not stated)" measured_value=15

----------
- Tested on: Staphylococcus aureus
- EXPERIMENT NOTES: Antibacterial activity against Staphylococcus aureus MTCC 96 assessed as inhibition of visual growth after 24 hrs
- Type: functional
- COND: MTCC 96, 24 h
READOUT KIND: log10 of MIC (log10 of the value in µg/mL)

compound=CN1C[C@](C#N)(C(=O)c2c[nH]c3ccccc23)[C@@H](c2cn(-c3ccccc3)nc2-c2ccccc2)[C@@]12C(=O)Nc1ccc([N+](=O)[O-])cc12 readout_kind="log10 of MIC" measured_value=2.40
compound="N#C[C@]1(C(=O)c2c[nH]c3ccccc23)C2CSCN2[C@]2(C(=O)N(Cc3ccccc3)c3ccccc32)[C@@H]1c1cn(-c2ccccc2)nc1-c1ccccc1 (stereo partly specified)" readout_kind="log10 of MIC" measured_value=1.80
compound="N#C[C@]1(C(=O)c2c[nH]c3ccccc23)C2CCCN2[C@]2(C(=O)Nc3ccc([N+](=O)[O-])cc32)[C@@H]1c1cn(-c2ccccc2)nc1-c1ccccc1 (stereo partly specified)" readout_kind="log10 of MIC" measured_value=2.10
compound="CC(=O)N1CCN(c2ccc(OCC3COC(Cn4ccnc4)(c4ccc(Cl)cc4Cl)O3)cc2)CC1 (stereo unspecified)" readout_kind="log10 of MIC" measured_value=0.80
compound=CN1C[C@](C#N)(C(=O)c2c[nH]c3ccccc23)[C@@H](c2cn(-c3ccccc3)nc2-c2ccccc2)[C@@]12C(=O)N(Cc1ccccc1)c1ccccc12 readout_kind="log10 of MIC" measured_value=2.70
compound="C#CCN1C(=O)[C@]2(c3ccccc31)[C@H](c1cn(-c3ccccc3)nc1-c1ccccc1)[C@@](C#N)(C(=O)c1c[nH]c3ccccc13)C1CCCN12 (stereo partly specified)" readout_kind="log10 of MIC" measured_value=2.70

The measured values listed here are drawn from ChEMBL document CHEMBL3351686.
